Experiment: Prodrug stability in simulated intestinal fluid
Details: 37° C., pH 6.8, HPLC
The label is satisfied for % prodrug remaining following incubation for 2 h in simulated intestinal fluid pH 6.8 below 90% and not satisfied for % prodrug remaining following incubation for 2 h in simulated intestinal fluid pH 6.8 equal to or exceeding 90%.

Study these solved cases before continuing.
# compound, category-label
rows = [
    ("NC(=O)CC[C@@H]1N=C(NC(=O)Cc2c(Cl)cccc2Cl)NC1=O [Compound 38, Guanfacine-(S)-Glutamine Cyclic Adduct]", "satisfied"),
    ("N=C(NC(=O)Cc1c(Cl)cccc1Cl)NC(=O)OC[C@H](NC(=O)CCN)C(=O)O", "not satisfied"),
    ("N=C(NC(=O)CCCNC(=O)[C@@H]1CCC(=O)N1)NC(=O)Cc1c(Cl)cccc1Cl", "satisfied"),
    ("NCCCC[C@@H]1N=C(NC(=O)Cc2c(Cl)cccc2Cl)NC1=O [Compound 36, Guanfacine-(S)-Lysine Cyclic Adduct]", "not satisfied"),
    ("N=C(NC(=O)Cc1c(Cl)cccc1Cl)NC(=O)OC[C@H](NC(=O)[C@@H]1CCC(=O)N1)C(=O)O", "not satisfied"),
]

Prompt: Input N=C(NC(=O)Cc1c(Cl)cccc1Cl)NC(=O)Oc1ccc(C[C@H](N)C(=O)O)cc1 [Compound 13, Guanfacine (S)-Tyrosine Carbamate] ; condition: % prodrug remaining following incubation for 2 h in simulated intestinal fluid pH 6.8 strictly below 90%. Does it hold?
Completion: satisfied

Prompt: Input CC(C)[C@@H](NC(=O)COC(=O)NC(=N)NC(=O)Cc1c(Cl)cccc1Cl)C(=O)O ; condition: % prodrug remaining following incubation for 2 h in simulated intestinal fluid pH 6.8 strictly below 90%. Does it hold?
Completion: not satisfied

Prompt: Input CC(C)[C@@H](N)C(=O)N[C@H](C(=O)O)[C@@H](C)OC(=O)NC(=N)NC(=O)Cc1c(Cl)cccc1Cl ; condition: % prodrug remaining following incubation for 2 h in simulated intestinal fluid pH 6.8 strictly below 90%. Does it hold?
Completion: not satisfied

Prompt: Input CN1CC(=O)N=C1NC(=O)Cc1c(Cl)cccc1Cl ; condition: % prodrug remaining following incubation for 2 h in simulated intestinal fluid pH 6.8 strictly below 90%. Does it hold?
Completion: satisfied

Prompt: Input N=C(NC(=O)CC[C@H](NC(=O)[C@H](N)CCCCN)C(=O)O)NC(=O)Cc1c(Cl)cccc1Cl ; condition: % prodrug remaining following incubation for 2 h in simulated intestinal fluid pH 6.8 strictly below 90%. Does it hold?
Completion: satisfied

Prompt: Input CC(C)[C@@H](N)C(=O)N[C@@H](C(=O)NC(=N)NC(=O)Cc1c(Cl)cccc1Cl)C(C)C [Compound 54, Guanfacine ((R)-Valine-(R)-Valine) Amide] ; condition: % prodrug remaining following incubation for 2 h in simulated intestinal fluid pH 6.8 strictly below 90%. Does it hold?
Completion: satisfied

Prompt: Input CC(C)(COC(=O)NC(=N)NC(=O)Cc1c(Cl)cccc1Cl)[C@@H](O)C(=O)NCCC(=O)O [Compound 68, Guanfacine Pantothenic acid Carbamate] ; condition: % prodrug remaining following incubation for 2 h in simulated intestinal fluid pH 6.8 strictly below 90%. Does it hold?
Completion: satisfied

Prompt: Input N=C(NC(=O)Cc1c(Cl)cccc1Cl)NC(=O)OCCNC(=O)CN ; condition: % prodrug remaining following incubation for 2 h in simulated intestinal fluid pH 6.8 strictly below 90%. Does it hold?
Completion: not satisfied

Prompt: Input CC(C)(CO)[C@@H](O)C(=O)NCCCOC(=O)NC(=N)NC(=O)Cc1c(Cl)cccc1Cl [Compound 69, Guanfacine Panthenol Carbamate] ; condition: % prodrug remaining following incubation for 2 h in simulated intestinal fluid pH 6.8 strictly below 90%. Does it hold?
Completion: not satisfied
